# reported melting point; entries follow

{"columns": ["Query Smiles", "melting point"],
 "data": [
  ["COc1ccccc1C(=O)Nc1ccc(OCCC(=O)O)cc1", "154 to 158 °C"],
  ["O=C(O)COc1ccc(CCCNC(=O)c2ccccc2O)cc1", "124 to 126.5 °C"],
  ["O=C(O)CCOc1ccc(NC(=O)c2ccccc2O)cc1", "165 to 167 °C"],
  ["O=C(O)CCCCOc1ccccc1NC(=O)c1ccccc1O", "147 to 149 °C"],
  ["O=C(O)CCCCOc1ccc(Cl)cc1NC(=O)c1ccccc1O", "166 to 169 °C"],
  ["O=C(O)CCCOc1ccc(Cl)cc1NC(=O)c1ccccc1O", "231 to 234 °C"],
  ["O=C(O)CCCCCCCOc1ccc(Cl)cc1NC(=O)c1ccccc1O", "152 to 153 °C"],
  ["O=C(O)CCCCCCCOc1ccccc1NC(=O)c1ccccc1O", "122 to 124 °C"],
  ["COc1cccc(C(=O)Nc2ccc(OCCC(=O)O)cc2)c1OC", "135 to 137 °C"]
]}
